# TESTED SYSTEM: human B1R receptor (CHO K1 cells stably transfected with the human B1R gene) (Homo sapiens)
# Construct: expressed in transfected cells; host or cells: CHO K1 cells (Chinese hamster ovary), stably transfected
# ASSAY DETAILS: Functional study on the bradykinin receptor 1 (B1R), Ca2+ fluorescence (Fluo-4) FLIPR/Novostar assay, hB1R cells
# Format: cell-based
# RECORDED CONDITIONS: CHO-K1, read-out: % inhibition (human B1R) at 10 μM
OBSERVED PROPERTY: inhibition at 10 µM (%)
A number alone suffices; assume %.

MOLECULE: CN(C(=O)c1ccc2c(c1)[C@H](N(C)C(=O)CCC1CCCC1)CC2)C1CCN(c2ccncc2F)CC1
inhibition at 10 µM (%): 100
//
MOLECULE: Cc1cc(N2CCC(N(C)C(=O)c3ccc4c(c3)[C@H](NC(=O)c3cccc(F)c3Cl)CC4)CC2)nc(C)n1
inhibition at 10 µM (%): 100
//
MOLECULE: CC(C)N(C(=O)c1ccccc1Cl)[C@@H]1CCc2cc(F)c(C(=O)N(C)C3CCN(c4ccncc4)CC3)cc21
inhibition at 10 µM (%): 62

QUERY: Report inhibition at 10 µM for CN(C(=O)c1ccc2c(c1)C(N(C(=O)c1ccccc1Cl)C(C)(C)C)CC2)C1CCN(c2ccncc2)CC1 (stereo not shown) please.
RESULT: 23

* * *

# TESTED SYSTEM: human B1R receptor (CHO K1 cells stably transfected with the human B1R gene) (Homo sapiens)
# Construct: expressed in transfected cells; host or cells: CHO K1 cells (Chinese hamster ovary), stably transfected
# ASSAY DETAILS: Functional study on the bradykinin receptor 1 (B1R), Ca2+ fluorescence (Fluo-4) FLIPR/Novostar assay, hB1R cells
# Format: cell-based
# RECORDED CONDITIONS: CHO-K1, read-out: % inhibition (human B1R) at 10 μM
OBSERVED PROPERTY: inhibition at 10 µM (%)
A number alone suffices; assume %.

Known inhibition at 10 µM results, listed for orientation:
COMPOUND: CN(C(=O)c1ccc2c(c1)[C@H](NC(=O)c1ccccc1F)CC2)C1CCN(c2ccncc2)CC1
UNIT INFO: %
inhibition at 10 µM: 99
//
COMPOUND: CN(C(=O)c1ccc2c(c1)[C@H](NC(=O)c1ccccc1Cl)CC2)C1CCN(c2ccc(Cl)cc2)CC1
UNIT INFO: %
inhibition at 10 µM: 29
//
COMPOUND: CN(C(=O)c1ccc2c(c1)[C@H](NC(=O)c1ccccc1Cl)CC2)C1CCN(c2ccccn2)CC1
UNIT INFO: %
inhibition at 10 µM: 97
//
COMPOUND: CC(C)N(C(=O)c1ccccc1Cl)[C@@H]1CCc2cc(C(=O)N(C)C3CCN(c4ccncc4)CC3)c(F)cc21
UNIT INFO: %
inhibition at 10 µM: 23
//
COMPOUND: CCN(C(=O)c1c(F)cccc1Cl)[C@@H]1CCc2ccc(C(=O)N(C)C3CCN(c4cc(C)nc(C)n4)CC3)cc21
UNIT INFO: %
inhibition at 10 µM: 97

QUERY: # inhibition at 10 µM lookup, item CN(CC1CCN(c2ccncn2)CC1)C(=O)c1ccc2c(c1)[C@H](NC(=O)c1ccccc1Cl)CC2
RESULT: 41

QUERY: inhibition at 10 µM for CCN(C(=O)c1ccc2c(c1)[C@H](NC(=O)c1ccccc1Cl)CC2)C1CCN(c2ccnc(C)c2)CC1 ?
RESULT: 100

QUERY: Which inhibition at 10 µM value is on record for COc1nc(C)cc(N2CCC(N(C)C(=O)c3ccc4c(c3)[C@H](NC(=O)c3ccccc3Cl)CC4)CC2)n1 ?
RESULT: 100

QUERY: State the recorded inhibition at 10 µM for this entry: O=C(NCCC1CCN(c2ccncc2)CC1)c1ccc2c(c1)C(NC(=O)c1ccccc1Cl)CC2 (stereo not shown)
RESULT: 100

QUERY: Would you mind telling me what inhibition at 10 µM value was observed for CN1CCN(C(=O)CN2CCC(N(C)C(=O)c3ccc4c(c3)[C@H](NC(=O)c3ccccc3Cl)CC4)CC2)CC1 ?
RESULT: 91

QUERY: Query: inhibition at 10 µM; subject: Cc1cc(N2CCC(N(C)C(=O)c3ccc4c(c3)[C@H](NC(=O)CCC3CCCC3)CC4)CC2)nc(C)n1
RESULT: 100

QUERY: # input compound: Cc1cc(C(=O)N[C@@H]2CCc3ccc(C(=O)N(C)C4CCN(c5ccncc5)CC4)cc32)no1 ; wanted: its inhibition at 10 µM
RESULT: 100

QUERY: Could you share which inhibition at 10 µM value was measured for CN(C(=O)c1ccc2c(c1)[C@H](NC(=O)C1(c3ccccc3F)CCCC1)CC2)C1CCN(c2ccncc2)CC1 ?
RESULT: 100

QUERY: Data request, read-out inhibition at 10 µM, for Cc1cc(N2CCC(N(C)C(=O)c3cc4c(cc3F)[C@H](NC(=O)c3ccccc3Cl)CC4)CC2)nc(C)n1
RESULT: 100

QUERY: inhibition at 10 µM for CN(C(=O)c1ccc2c(c1)[C@H](NC(=O)[C@@H]1CCCc3ccccc31)CC2)C1CCN(c2ccncc2)CC1 ?
RESULT: 100

QUERY: Give the measured inhibition at 10 µM of CN(C(=O)c1ccc2c(c1)[C@H](NC(=O)Cc1ccccc1Cl)CC2)C1CCN(c2ccncc2)CC1 .
RESULT: 100

QUERY: Would you mind telling me what inhibition at 10 µM value was observed for CC(C)N(C(=O)c1cccnc1C(F)(F)F)[C@@H]1CCc2ccc(C(=O)N(C)C3CCN(c4ccncc4)CC3)cc21 ?
RESULT: 45

QUERY: Please look up its inhibition at 10 µM: CN(C)c1cc(C2CCC(N(C)C(=O)c3ccc4c(c3)[C@H](NC(=O)c3ccccc3Cl)CC4)CC2)ccn1 (stereo partly shown)
RESULT: 72

QUERY: // returns reported inhibition at 10 µM for input CN(C(=O)c1ccc2c(c1)[C@H](NC(=O)c1cncc3ccccc13)CC2)C1CCN(c2ccncc2)CC1
RESULT: 100

QUERY: Any idea what its inhibition at 10 µM is? The compound is CCN(C(=O)c1ccccc1Cl)[C@@H]1CCc2ccc(C(=O)N(C)C3CCN(c4cc(C)nc(C)n4)CC3)cc21
RESULT: 100

QUERY: Quick one: inhibition at 10 µM for Cc1cc(N2CCC(N(C)C(=O)c3ccc4c(c3)[C@H](N(C)C(=O)c3c(F)cccc3Cl)CC4)CC2)nc(C)n1 ?
RESULT: 97

QUERY: Fill in the blank: the reported inhibition at 10 µM of Cc1cc(CN2CCC(N(C)C(=O)c3ccc4c(c3)[C@H](NC(=O)c3ccccc3Cl)CC4)CC2)on1 is ____.
RESULT: 8

QUERY: Quick one: inhibition at 10 µM for CN(C(=O)c1ccc2c(c1)[C@H](NC(=O)c1ccccc1Cl)CC2)C1CCN(c2ccncc2)CC1(C)C (stereo partly shown) ?
RESULT: 99

QUERY: Need inhibition at 10 µM, item Cc1cc(N2CCC(N(C)C(=O)c3ccc4c(c3)[C@H](NC(=O)CC(C)C)CC4)CC2)ccn1
RESULT: 100

QUERY: Which value of inhibition at 10 µM has been reported for CN(C(=O)c1ccc2c(c1)[C@H](NC(=O)c1cnccc1C(F)(F)F)CC2)C1CCN(c2ccncc2)CC1 in the records?
RESULT: 100

* * *

# TESTED SYSTEM: human B1R receptor (CHO K1 cells stably transfected with the human B1R gene) (Homo sapiens, UniProt P46663)
# Construct: expressed in transfected cells; host or cells: CHO K1 cells (Chinese hamster ovary), stably transfected
# Sequence (P46663 whole entry): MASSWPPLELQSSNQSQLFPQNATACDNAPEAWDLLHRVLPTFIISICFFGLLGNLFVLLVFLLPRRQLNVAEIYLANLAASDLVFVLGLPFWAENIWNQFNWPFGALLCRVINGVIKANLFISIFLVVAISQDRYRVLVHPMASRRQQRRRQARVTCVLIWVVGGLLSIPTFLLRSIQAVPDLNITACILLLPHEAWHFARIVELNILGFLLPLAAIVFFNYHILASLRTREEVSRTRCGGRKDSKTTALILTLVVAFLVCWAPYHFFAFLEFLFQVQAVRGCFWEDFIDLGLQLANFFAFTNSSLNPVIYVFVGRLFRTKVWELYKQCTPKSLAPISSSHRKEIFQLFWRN
# ASSAY DETAILS: Functional study on the bradykinin receptor 1 (B1R), Ca2+ fluorescence (Fluo-4) FLIPR/Novostar assay, hB1R cells
# Assay type: cell-based
# RECORDED CONDITIONS: CHO-K1, read-out: % inhibition (human B1R) at 10 μM
OBSERVED PROPERTY: inhibition at 10 µM (%)
Write the value in % as a bare number.

Reference set (3 entries):
COMPOUND: CN(C(=O)c1ccc2c(c1)[C@H](NC(=O)c1ccccc1Cl)CC2)C1CCN(c2ccncc2F)CC1 [Example H-117]
inhibition at 10 µM (%): 99
--
COMPOUND: CCN(C(=O)c1cc(F)ccc1Cl)[C@@H]1CCc2ccc(C(=O)N(C)C3CCN(c4cc(C)nc(C)n4)CC3)cc21 [Example H-211]
inhibition at 10 µM (%): 99
--
COMPOUND: CN(C(=O)c1ccc2c(c1)[C@H](NC(=O)c1ccccc1Cl)CC2)C1CN(c2ccncc2)C1 [Example H-146]
inhibition at 10 µM (%): -1

Continue with the next compound.
QUERY: I am curious: what inhibition at 10 µM value has been reported for CN(C(=O)c1ccc2c(c1)[C@H](NC(=O)c1cnn3cccnc13)CC2)C1CCN(c2ccncc2)CC1 [Example H-22] ?
RESULT: 100
